test system: HBMEC monolayer
Endpoint Label: Te % (SEM) 2 h

INSERT INTO measurements (molecule, reported_result) VALUES
  ('CC1=CCCC2(C)CCC3C(C)(C)CC132 (stereo not drawn) [(−)-α-Panasinsen]', '19.8 (0.2) %'),
  ('CC(C)C1CCC2(C)C3CC=C(C=O)C2C13 (stereo not drawn) [Ylangenal]', '32.0 (2.7) %'),
  ('CCOC(=O)/C=C/c1ccc(O)c(O)c1 [Ethyl caffeate]', '33.4 (2.4) %');

Data origin: paper PMC9820279
